Numbers sourced from the supplement of paper PMC6555819.

# System: THRa:RXRa (NR concentration 90 nM, RXRa partner concentration 90 nM)
# EXPERIMENT: PBM binding z-score (relative to random genomic background probes); higher = stronger binding; sequences stand for … in GC…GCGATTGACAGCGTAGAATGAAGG

| ITEM_SEQUENCE | PBM binding z-score |
| --- | --- |
| TCAGACAGGTAAAGGTAACTCAGGTACGCAGTCG | 1.67 |
| CCTGCTAGGTCAATGGTCACCTAAAGCAGCTCGC | 2.78 |
| ATATGTAGGTTAGCTGGGGTTATTCAGACTAGGC | 4.32 |
| AGTCAAAGTTCAGGAAGAGGTAACGTAAAGCACG | 2.91 |
| CAAACTAGGTCACAGAGGTCTAAGTCCGTGCGTA | 3.54 |
| ATATGTAGCTTACATCCGGGTCATTCAGGCTATG | 2.87 |
| TCGAGTACGTTAGTCGGGGCATTCAGCCAACATA | -0.142 |
| ATCGCTAGGTAACCAAGTTCAGTGAATGCCGAAC | 0.934 |
| ACAGACAGGTGGGTGAAGGTAACTCAGCTGGACG | 0.52 |
| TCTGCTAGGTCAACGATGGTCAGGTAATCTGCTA | 3.09 |
| GCTAGCAGGCCATTCGGGTCACTCAATGACGGGC | 3.09 |
| CCTAGTTGGTCAGGAGGTGACACACCGGATATGA | 1.18 |
| GCTTGTAGACCAAGGTTAAGAAAGACTAAGCTAA | 0.969 |
| ATATGTAGGTTAACGGGTCATTCAGTTTGCGCAT | 2.27 |
| CAAACTAGGTCAAGGGCAAAGTCGGTTTGTGCCA | 3.27 |
| CCGACTGGGGCATCAGGTTACCATAAGCCAGCCC | 0.994 |
| TAAATGAGGTTATAAGATCAGGGAACGTTGCAAA | 1.9 |
| TTGCCAAGGTGAGCTGAGGTCGTTGATCCAACTC | 4.62 |
| GCTATTTGTTGAAAGGGCAACCGAATGATTCTCG | 0.638 |
| CAGCCTAGGTCAGGGCCAGAATAGGAGGAACGTT | 1.84 |
| ATCGAAAGGTCGACGTGGTGAGTATACACCGTTT | 1.89 |
| TATACAGGGTTAAAGGCCAGAGTACGAATGTCGA | 1.56 |
| GCAGACAGGTGAAATGCAGGTAACTCAGGGTGGC | 1.38 |
| ATCTCTAGGTAAAAGTTCATTGAATCCCGAGGAT | 1.87 |
| TCTTGGAGATCAAAGGTTAAGAAAGCCGAAGCCT | 1.4 |
| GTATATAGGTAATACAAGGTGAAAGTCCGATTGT | 4.18 |
| ACTAGCAGTCCAAGTTTGGGTCACTCAAACAAAG | 2.16 |
| ACAGACAGGTGAGTGAGGGTAACTCAGCTGGACG | 1.63 |
| AGCGAAAGGTCGACGAGGTGAGTATACACCGTTT | 3.75 |
| CCGACTGGGGCAGAAAGGTAACCATACCATCCGG | 0.0799 |
| ATATGTAGGTTACATACGGGTCATTCAGGCTATG | 2.73 |
| TCAGACAGGTGAAAGTAACTCAGGTACGCAGTCG | 0.472 |
| AGAATGAGGTTACCAACGATCAGGGAAACGCTTG | 2.75 |
| ACAGACCGGTGATGAAGGTAACTCAGGCTATCAT | 0.648 |
| CTCGAAAGGGCGGTTGAGGTGAGTATACGGATAA | 4.21 |
| TCTTGTAGATCAACAGTAGGTTAAGAAAGATCGA | 0.12 |
| CGTCCAAGGTCACAGGTCAGTGAAGAGATGACGG | 4.36 |
| AGAATGAGGTTAAGATCACGGAAACAGAATACAT | 2.47 |
| TCTAGTTGGTCAAAGGTCACAAACTCGAAATGCG | 3.84 |
| TCTGCTAGGTCAGTTGGTCAGCTAACGAGCTGCC | 1.36 |
| TCTTGTAGATCAGCAGGTTAAGATAGCTGGCCAA | 0.172 |
| CGTCAAATTTCAACTAAGGTAACGTAAAGCACGC | 2.71 |
| TTACCAAGGTGACAGGTCGTTGATGCACGCCTTG | 2.19 |
| CCTTACCGGTCACGAGGTTATAGCACGACGAGCG | 2.37 |
| GCTCGTAGATCAAGGTTAAGAAAGACTAAGCTAA | 0.978 |
| TCATATAGCTAATACAGGTGAAAGTCGGCATCTA | 0.42 |
| GGCACGAGGGCAAGTTGATAGCAGAGTTTGATGG | 1.23 |
| GCTATTAGTTGCAAGGGCAACCGAATGATTCTCG | 0.666 |
| TCGAGTAGGTTAGTCGGGTCATTCAGCCAACATA | 3.06 |
| AGAATGAGGTTATTACGATCAGGGAATTGCGGTC | 2.44 |
| GCGACTGGGGCAAAGCAGGGTACCATAAGGTTGG | 1.61 |
